- MEASUREMENT_NOTES: Aqueous solvolysis reactivity followed by UV
- Type: physicochemical
- COND: 50% ch3oh-buffer, pH 3
PARAMETER_MEASURED: half-life (h)
The answer is to be given in h; state only the numeric part.

half-life reading for CC(C)(C)OC(=O)N1CC2CC23C1=CC(=O)c1ccccc13 (stereo not drawn) [N-BOC-CBI, reference compound] : 133

Data point: CC(C)(C)OC(=O)N1CC2C(F)(F)C23C1=CC(=O)c1ccccc13 (stereo not drawn) ; half-life = 0.26

The compound O=C1C=C2NCC3C(F)(F)C23c2ccccc21 (stereo not drawn) showed half-life equal to 4.2

====

- MEASUREMENT_NOTES: Aqueous solvolysis reactivity followed by UV
- Type: physicochemical
- COND: pH 3, 50% CH3OH-buffer; read-out: solvolysis half-life t1/2 (converted)
PARAMETER_MEASURED: half-life (days)
Could you give me the number in days? Just the number is fine.

half-life reading for CC(C)(C)OC(=O)N1CC2CC23C1=CC(=O)c1ccc(C#N)cc13 (stereo not shown) : 8.88

====

- MEASUREMENT_NOTES: Aqueous solvolysis reactivity followed by UV
- Format: physicochemical
- COND: 1:1 h2o-ch3oh, pH 7
PARAMETER_MEASURED: half-life (h)
Respond numerically; units are h and should not be typed.

// half-life lookup, molecule = CC(C)(C)OC(=O)N1CC2C(F)(F)C23C1=CC(=O)c1ccccc13 (stereo not shown) [compound 219] , result: 2.33

====

- MEASUREMENT_NOTES: Aqueous solvolysis reactivity followed by UV
- Format: physicochemical
- COND: ch3oh-buffer 1:1, pH 2
PARAMETER_MEASURED: half-life
Remember to follow the number with its unit.

Reported half-life for N#Cc1ccc2c(c1)C13CC1CNC3=CC2=O (stereo not shown) was 91.5 h

====

- MEASUREMENT_NOTES: Aqueous solvolysis reactivity followed by UV
- Format: physicochemical
- COND: pH 2 (buffer pH 2.05), CH3OH-buffer 1:1, 25° C.; read-out: solvolysis half-life t1/2 (converted)
PARAMETER_MEASURED: half-life (h)
Please state the figure in h; there is no need to write the unit.

Lab note: measured half-life of CC(C)(C)OC(=O)N1CC2CC23C1=CC(=O)c1ccc(C#N)cc13 (stereo not shown) was 24.2

====

- MEASUREMENT_NOTES: Aqueous solvolysis reactivity followed by UV
- Type: physicochemical
- COND: pH 3, 50% CH3OH-buffer
PARAMETER_MEASURED: solvolysis rate constant k (s⁻¹)
I only need the number, in s⁻¹, no unit after it.

For record CC(C)(C)OC(=O)N1CC2C(F)(F)C23C1=CC(=O)c1ccccc13 (stereo not shown) [compound 219] the listed solvolysis rate constant k is 0.000705

Documented solvolysis rate constant k of O=C1C=C2NCC3C(F)(F)C23c2ccccc21 (stereo not shown) [compound 218] : 4.54e-05

The compound listed as CC(C)(C)OC(=O)N1CC2CC23C1=CC(=O)c1ccc(C#N)cc13 (stereo not shown) [compound 25] has a reported solvolysis rate constant k of 9.9e-07

Reported solvolysis rate constant k ( CC(C)(C)OC(=O)N1CC2CC23C1=CC(=O)c1ccccc13 (stereo not shown) [N-BOC-CBI, reference compound] ) = 1.45e-06

====

Consider the following compounds; for each one, report its pIC50.
- Test system: L1210
- MEASUREMENT_NOTES: In vitro cytotoxic activity, L1210
- COND: Mus musculus, L1210, read-out: cytotoxic activity IC50
pIC50: −log10 of the molar value.

// returns pIC50 for CCOC(=O)CCC(=O)N1CC(CCl)c2c1cc(O)c1ccccc21 (centres unmarked) with L1210; value = 8.22 to 8.30

Tested on L1210, the item CCOC(=O)CCC(=O)N1CC2CC23C1=CC(=O)c1ccccc13 (centres unmarked) showed pIC50 equal to 8.22 to 8.30
